Settings: 313.15 K; 101.33 kPa; Liquid; Concentric cylinders viscometry
ATTRIBUTE MEASURED: viscosity (mPa·s)
One number for each entry, in mPa·s.

> print(dat)
                       compound  recorded.result
1  CCCCCCC(C)C [2-methyloctane]            0.499

Respectfully, I request viscosity for each entry included below.
1. CCC(C)CCC(C)CC (centres undefined) [3,6-dimethyloctane]
2. CCCCCCCCC(C)CC (centres undefined) [3-methylundecane]
3. CCCCCCCCCC(C)CCCCCC (centres undefined) [7-methylhexadecane]
4. CCCCCCCCCCCCCC(C)C [2-methylpentadecane]
5. CCCCCCCC(C)C [2-methylnonane]
6. CCCCCCCCC(C)C [2-methyldecane]
7. CCC(C)CC(C)CC (centres undefined) [3,5-dimethylheptane]
8. CCCCC(C)CCC (centres undefined) [4-methyloctane]

0.62
1.01
2.47
2.24
0.653
0.83
0.508
0.453

* * *

Details: 323.15 K; 101.33 kPa; Liquid; Concentric cylinders viscometry
I'd appreciate it if you could supply viscosity values for the items below.
Give bare numbers, in mPa·s.

Example results:
> print(dat)
                                  compound  recorded.result
1                       CCCCCCCCCCCCCC(C)C             1.85
2       CCC(C)CCC(C)CC (centres undefined)            0.568
3        CCC(C)CC(C)CC (centres undefined)            0.477
4                              CCCCCCC(C)C             0.47
5          CCCCC(C)CCC (centres undefined)            0.441
6       CCCCCCCCC(C)CC (centres undefined)            0.883
7  CCCCCCCCCC(C)CCCCCC (centres undefined)                2
8                             CCCCCCCC(C)C            0.595

// below: viscosity requested for another compound
Give the measured viscosity of CCCCCCCCC(C)C .
0.736

* * *

Details: 373.15 K; 101.33 kPa; Liquid; Vibrating tube method
ATTRIBUTE MEASURED: mass density (kg/m3)
One number for each entry, in kg/m3.

Respectfully, I request mass density for each entry included below.
1. CCCCCCCCC(C)CC (centres undefined)
2. CCCCCCCCCCCCCC(C)C

1: 691.9; 2: 718.9

Respectfully, I request mass density for each entry included below.
1. CCCCCCC(C)C
2. CCCCCCCCC(C)C
3. CCCCCCCC(C)C
4. CCCCC(C)CCC (centres undefined)
5. CCC(C)CC(C)CC (centres undefined)
6. CCCCCCCCCC(C)CCCCCC (centres undefined)
7. CCC(C)CCC(C)CC (centres undefined)

1. 649.7
2. 677
3. 664
4. 653.9
5. 661.2
6. 725.4
7. 674.9

* * *

Details: 363.15 K; 101.33 kPa; Liquid; Vibrating tube method
Response field label takes met when mass density is strictly below 700 kg/m3 and not met in all other cases.

Solved cases (3 shown):
> print(dat)
                             compound      cat
1    CCCCC(C)CCC (stereo unspecified)      met
2  CCC(C)CC(C)CC (stereo unspecified)      met
3                  CCCCCCCCCCCCCC(C)C  not met

Pending compound:
For CCCCCCCCCC(C)CCCCCC (stereo unspecified) , is the recorded mass density below the cut-off of 700 kg/m3?
not met

* * *

Conditions: 283.15 K; 101.33 kPa; Liquid; Concentric cylinders viscometry
Numbers after ± are expanded uncertainties.
I'd appreciate it if you could supply viscosity values for the items below.

> print(dat)
                                   molecule      recorded.result
1  CCC(C)CC(C)CC (centres undefined) [3,5-dimethylheptane]  0.792 ± 0.018 mPa·s
2  CCCCCCCCCCCCCC(C)C [2-methylpentadecane]     4.6 ± 0.29 mPa·s
3              CCCCCCC(C)C [2-methyloctane]  0.776 ± 0.017 mPa·s
4  CCCCCCCCC(C)CC (centres undefined) [3-methylundecane]    1.73 ± 0.03 mPa·s
5  CCC(C)CCC(C)CC (centres undefined) [3,6-dimethyloctane]  0.988 ± 0.022 mPa·s

Respectfully, I request viscosity for each entry included below.
1. CCCCCCCCCC(C)CCCCCC (centres undefined) [7-methylhexadecane]
2. CCCCCCCC(C)C [2-methylnonane]
3. CCCCCCCCC(C)C [2-methyldecane]

5.36 ± 0.52 mPa·s
1.037 ± 0.022 mPa·s
1.37 ± 0.02 mPa·s

Give the measured viscosity of CCCCC(C)CCC (centres undefined) [4-methyloctane] .
0.719 ± 0.021 mPa·s

* * *

Conditions: 313.15 K; 101.33 kPa; Liquid; Pulse-echo method
Numbers after ± are expanded uncertainties.
ATTRIBUTE MEASURED: speed of sound
Give the value; after it, write the unit.

Example results:
> print(dat)
                             compound   recorded.result
1   CCC(C)CC(C)CC (centres undefined)  1121.3 ± 1.9 m/s
2                        CCCCCCCC(C)C    1152 ± 1.5 m/s
3                       CCCCCCCCC(C)C  1178.8 ± 1.3 m/s
4  CCC(C)CCC(C)CC (centres undefined)  1156.3 ± 1.9 m/s
5                         CCCCCCC(C)C  1120.7 ± 1.5 m/s

Respectfully, I request speed of sound for each entry included below.
1. CCCCCCCCCCCCCC(C)C
2. CCCCCCCCCC(C)CCCCCC (centres undefined)
3. CCCCCCCCC(C)CC (centres undefined)
4. CCCCC(C)CCC (centres undefined)

1: 1267.3 ± 6.1 m/s; 2: 1281.3 ± 2.3 m/s; 3: 1214 ± 2.3 m/s; 4: 1130.8 ± 1.5 m/s

* * *

Settings: 353.15 K; 101.33 kPa; Liquid; Vibrating tube method
Numbers after ± are expanded uncertainties.
I'd appreciate it if you could supply mass density values for the items below.
Give the value; after it, write the unit.

Example results:
> print(dat)
                             compound  attribute.measured    recorded.result
1                       CCCCCCCCC(C)C        mass density  692.8 ± 0.4 kg/m3
2  CCCCCCCCC(C)CC (centres undefined)        mass density    707 ± 0.6 kg/m3
3  CCC(C)CCC(C)CC (centres undefined)        mass density  691.5 ± 0.4 kg/m3

// below: mass density requested for another compound
Give the measured mass density of CCCCCCCC(C)C .
680.2 ± 0.4 kg/m3

* * *

Conditions: 293.15 K; 101.33 kPa; Liquid; Concentric cylinders viscometry
I'd appreciate it if you could supply viscosity values for the items below.
Numbers only, in mPa·s.

Example results:
> print(dat)
                                   molecule  recorded.result
1  CCC(C)CC(C)CC (stereo not drawn) [3,5-dimethylheptane]            0.688
2  CCCCCCCCC(C)CC (stereo not drawn) [3-methylundecane]             1.43

// below: viscosity requested for another molecule
Give the measured viscosity of CCCCCCCCC(C)C [2-methyldecane] .
1.15
